I'd be grateful if you could share measured Kd for these entries.
target: NANPNVDP (Plasmodium falciparum); experiment: BLI, target on sensor
Numbers only here, please. The scale is nM.

Tell me the measured Kd of AB-007069 (antibody, V domains shown) VH: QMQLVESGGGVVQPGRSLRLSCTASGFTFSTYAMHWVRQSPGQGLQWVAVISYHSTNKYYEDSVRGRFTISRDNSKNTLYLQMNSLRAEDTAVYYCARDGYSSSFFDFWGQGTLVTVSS VL: DIQMTQSPSTLSASVGDRVAITCRASQSISRWLAWYQQQPGKAPKLLMSVASVLESGVPSRFSGSGSGTEFTLTISSLQPDDFATYYCQHYNSYFVTFGQGTKVEIK , please. 26.6

Give the measured Kd of AB-007074 (antibody, V domains shown) VH: QMQLVESGGGVVQPGRSLRLSCAASGFTFSTYAMHWVRQAPGQGLQWVAVISYHSTNKYYEDSVRGRFTISRDNSKNTLYLQMNSLRAEDTAVYYCARDGYSSSFFDFWGQGTLVTVSS VL: DIQMTQSPSTLSASVGDRVTITCRASQSISRWLAWYQQQPGKAPKLLMSGASVLESGVPSRFSGSGSGTEFTLTISSLQPDDFATYYCQHYNSYYVTFGQGTKVEIK . 10.2

So what's the measured Kd for this one? AB-007032 (antibody, V domains shown) VH: QVQLVESGGGVVQPGRSLRLSCAASGFTFSTYAMHWVRQAPGQGLQWVAVISYHSTNKYYEDSVRGRFTISRDNSKNTLYLQMNSLRAEDTAVYYCARDGYSSSFFDFWGQGTLVTVSS VL: DIQMTQSPSTLSASVGDRVTITCRASQSISRWLAWYQQQPGKAPKLLISGASVLESGVPSRFSGSGSGTEFTLTISSLQPDDFATYYCQHYNSYFVTFGQGTKVEIK 13.9
